System: CV-B3
Assay: microbe, parasite or virus in culture
Type: cell-based, coxsackievirus B3
Conditions: Enterovirus B, CVB3, HeLa R19, read-out: CV-B3 Exp2 EC50
pEC50: −log10 of the molar value.
reportedMetric: pEC50

Here's what some known entries look like.
COc1ccc(N(Cc2ccc(F)cc2)C(C)=O)cc1 ... < 4.52
COc1ccc(N(Cc2ccc(F)cc2)C(=O)C2CCCO2)cc1 (stereo not drawn) ... < 4.52

Now let's try a different one.
Given the entry COc1ccc(N(Cc2ccco2)C(=O)c2ccc(F)cc2)cc1 , report its measured pEC50.
< 4.52
